ASSAY TARGET: human ACC2 (Homo sapiens (Human), UniProt O00763)
Sequence (O00763 129-2458): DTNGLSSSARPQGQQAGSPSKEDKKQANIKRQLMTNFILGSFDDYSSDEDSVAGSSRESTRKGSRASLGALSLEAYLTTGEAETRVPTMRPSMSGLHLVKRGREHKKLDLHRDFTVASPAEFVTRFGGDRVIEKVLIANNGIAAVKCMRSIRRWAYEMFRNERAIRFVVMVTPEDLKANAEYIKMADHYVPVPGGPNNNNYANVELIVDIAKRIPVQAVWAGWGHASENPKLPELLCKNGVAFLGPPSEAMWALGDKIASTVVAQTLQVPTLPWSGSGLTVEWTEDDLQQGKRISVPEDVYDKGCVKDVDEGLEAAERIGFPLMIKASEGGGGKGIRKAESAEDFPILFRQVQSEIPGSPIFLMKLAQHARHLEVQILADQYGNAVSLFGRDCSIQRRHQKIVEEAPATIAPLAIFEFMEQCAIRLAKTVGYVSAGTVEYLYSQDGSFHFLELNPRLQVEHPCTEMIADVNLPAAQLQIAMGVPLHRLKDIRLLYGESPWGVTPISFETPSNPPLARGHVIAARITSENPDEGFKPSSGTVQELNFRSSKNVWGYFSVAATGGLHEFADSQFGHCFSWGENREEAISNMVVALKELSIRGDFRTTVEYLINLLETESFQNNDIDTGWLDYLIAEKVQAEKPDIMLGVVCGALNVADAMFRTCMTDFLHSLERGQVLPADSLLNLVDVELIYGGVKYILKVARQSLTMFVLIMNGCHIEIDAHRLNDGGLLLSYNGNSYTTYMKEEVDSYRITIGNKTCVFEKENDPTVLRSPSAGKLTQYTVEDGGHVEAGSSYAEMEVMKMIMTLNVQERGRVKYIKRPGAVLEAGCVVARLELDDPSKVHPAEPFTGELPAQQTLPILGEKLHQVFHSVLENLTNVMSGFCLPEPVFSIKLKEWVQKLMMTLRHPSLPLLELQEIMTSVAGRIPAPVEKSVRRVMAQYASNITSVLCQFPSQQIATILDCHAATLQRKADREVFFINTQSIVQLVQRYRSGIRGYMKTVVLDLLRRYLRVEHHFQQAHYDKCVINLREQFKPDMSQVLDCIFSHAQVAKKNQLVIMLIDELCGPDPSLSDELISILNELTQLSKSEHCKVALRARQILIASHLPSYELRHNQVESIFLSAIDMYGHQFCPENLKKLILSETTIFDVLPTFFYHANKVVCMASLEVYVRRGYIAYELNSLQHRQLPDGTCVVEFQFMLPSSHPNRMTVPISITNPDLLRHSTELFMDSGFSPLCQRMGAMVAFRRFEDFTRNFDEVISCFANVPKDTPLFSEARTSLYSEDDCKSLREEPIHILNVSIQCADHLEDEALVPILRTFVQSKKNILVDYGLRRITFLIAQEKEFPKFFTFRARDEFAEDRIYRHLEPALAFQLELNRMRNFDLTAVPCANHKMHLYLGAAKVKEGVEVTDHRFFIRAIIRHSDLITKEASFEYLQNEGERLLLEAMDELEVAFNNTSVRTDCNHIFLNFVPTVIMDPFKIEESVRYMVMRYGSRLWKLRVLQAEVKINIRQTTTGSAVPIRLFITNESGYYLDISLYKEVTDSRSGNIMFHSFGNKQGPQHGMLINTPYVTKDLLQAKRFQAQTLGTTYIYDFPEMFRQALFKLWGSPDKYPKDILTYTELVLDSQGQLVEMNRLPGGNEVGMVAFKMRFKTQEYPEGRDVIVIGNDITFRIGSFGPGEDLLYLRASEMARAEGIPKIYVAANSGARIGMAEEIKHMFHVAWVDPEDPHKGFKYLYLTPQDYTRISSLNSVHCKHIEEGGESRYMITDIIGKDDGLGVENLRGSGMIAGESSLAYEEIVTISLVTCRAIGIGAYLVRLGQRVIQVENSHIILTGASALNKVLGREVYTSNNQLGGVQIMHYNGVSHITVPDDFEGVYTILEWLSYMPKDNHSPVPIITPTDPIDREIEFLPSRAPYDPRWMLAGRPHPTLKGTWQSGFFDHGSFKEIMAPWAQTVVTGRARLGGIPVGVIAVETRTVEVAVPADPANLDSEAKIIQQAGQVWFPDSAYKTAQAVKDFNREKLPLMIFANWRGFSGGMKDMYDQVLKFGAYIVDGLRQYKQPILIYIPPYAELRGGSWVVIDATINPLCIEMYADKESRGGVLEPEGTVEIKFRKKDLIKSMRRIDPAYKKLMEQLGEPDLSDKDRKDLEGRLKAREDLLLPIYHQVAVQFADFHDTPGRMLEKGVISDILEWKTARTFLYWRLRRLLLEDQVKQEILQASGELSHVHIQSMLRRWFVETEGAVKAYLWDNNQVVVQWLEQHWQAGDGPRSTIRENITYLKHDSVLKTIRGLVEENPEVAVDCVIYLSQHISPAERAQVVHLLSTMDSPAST
PROTOCOL DESCRIPTION: ACC2 assay (spectrophotometric 384 well assay, NADH-linked kinetic method)
Format: biochemical
PARTICULARS: hACC2 construct lacking 128 N-terminal amino acids; coupled lactate dehydrogenase/pyruvate kinase reaction, 340 nm, 25° C.
METRIC: pIC50
pIC50 (log units): -log10 of the concentration in mol/L.

What does the data say about its pIC50? Entry: CC(=O)N[C@@H](C)c1ccc(O[C@@H]2CCN(c3ncnc(OCC4(C#N)CC4)c3F)C2)cc1 [Example 7.29]
6.76

What does the data say about its pIC50? Entry: C[C@H](NC(=O)c1cnco1)c1ccc(OC2CCN(c3ccnc(N4CCOCC4)n3)C2)cc1 (stereo partly drawn) [Example 2.6]
6.49

What does the data say about its pIC50? Entry: CC(=O)N[C@@H](C)c1ccc(O[C@@H]2CCN(c3ccnc(N4CC(F)(F)C4)n3)C2)cc1 [Example 8.45]
6.72

What does the data say about its pIC50? Entry: CC(=O)N[C@@H](C)c1ccc(O[C@@H]2CCN(c3nc(N(C)CCOC(C)(C)C)ncc3Cl)C2)cc1 [Example 8.192]
6.19

What does the data say about its pIC50? Entry: CCC(=O)Nc1nc(C)c(C(=O)N[C@@H](C)c2ccc(O[C@@H]3CCN(c4ncnc(OCC5CC5)c4OC)C3)cc2)s1 [Example 7.63]
6.95

What does the data say about its pIC50? Entry: CC(=O)N[C@@H](C)c1ccc(O[C@@H]2CCN(c3cnc(NC4CCC4)nc3)C2)cc1 [Example 1.1]
6.31

What does the data say about its pIC50? Entry: CC(=O)Nc1nc(C)c(C(=O)N[C@@H](C)c2ccc(OC3CCN(c4ccnc(N(C)CC(F)F)n4)C3)cc2)s1 (stereo partly drawn) [Example 2.10]
6.94

What does the data say about its pIC50? Entry: CCN(CC)c1ncnc(N2CC[C@@H](Oc3ccc([C@H](C)NC(C)=O)cc3)C2)c1Cl [Example 8.104]
7.23

What does the data say about its pIC50? Entry: COc1cccc(N(C)c2nccc(N3CC[C@@H](Oc4ccc([C@H](C)NC(C)=O)cc4)C3)n2)c1 [Example 8.39]
6.34

What does the data say about its pIC50? Entry: CC(=O)N[C@@H](C)c1ccc(O[C@@H]2CCN(c3ncnc(N4CC(C)(O)C4)c3F)C2)cc1 [Example 8.237]
6.13

What does the data say about its pIC50? Entry: CC(=O)N[C@@H](C)c1ccc(O[C@@H]2CCN(c3nc(N4CCC[C@H]4C)ncc3F)C2)cc1 [Example 8.283]
7.24

What does the data say about its pIC50? Entry: CC(=O)N[C@@H](C)c1ccc(O[C@@H]2CCN(c3ncnc(OC(C)C)c3Cl)C2)cc1 [Example 7.52]
6.98

What does the data say about its pIC50? Entry: CC(=O)N[C@@H](C)c1ccc(O[C@@H]2CCN(c3ncnc(N(C)C4CC4)c3F)C2)cc1 [Example 8.133]
6.52

What does the data say about its pIC50? Entry: C[C@H](NC(=O)c1cncs1)c1ccc(O[C@@H]2CCN(c3ccnc(C(F)(F)F)n3)C2)cc1 [Example 6.16]
6.82

What does the data say about its pIC50? Entry: C[C@H](NC(=O)c1cncs1)c1ccc(O[C@@H]2CCN(c3ccnc(N(C)CC(F)F)n3)C2)cc1 [Example 8.97]
7.10
